# pIC50 per entry
Molecular target: KMT9 (Homo sapiens, UniProt Q9Y5N5)
Sequence (Q9Y5N5 whole entry): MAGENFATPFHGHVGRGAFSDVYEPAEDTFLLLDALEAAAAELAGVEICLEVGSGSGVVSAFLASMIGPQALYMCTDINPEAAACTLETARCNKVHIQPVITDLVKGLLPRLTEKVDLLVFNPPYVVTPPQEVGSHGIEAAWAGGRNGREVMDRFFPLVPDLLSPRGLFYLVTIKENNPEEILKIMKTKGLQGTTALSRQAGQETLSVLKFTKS
Sequence (Q9UI30 1-120 isoform Q9UI30-2 partner): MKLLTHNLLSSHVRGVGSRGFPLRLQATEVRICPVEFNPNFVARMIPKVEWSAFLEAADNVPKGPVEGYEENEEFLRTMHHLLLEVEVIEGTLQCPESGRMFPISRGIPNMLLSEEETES
Assay: KMT9 methyltransferase inhibition assay, 3H-SAM scintillation (entries 1-154)
Format: biochemical
Details: entries 1-154: 3H-SAM assay, 25 nM KMT9, 5 μM ETF1
pIC50: −log10 of the molar value.
reported-property: pIC50

[
  {
    "compound": "CN1CC=C(c2cn([C@@H]3C[C@H](CNCCCNCCc4ccccc4)[C@@H](O)[C@H]3O)c3ncnc(N)c23)CC1 [482 (356)]",
    "measured": "5.00 to 6.00"
  },
  {
    "compound": "C=Cc1cn([C@@H]2C[C@H](CNCCCNCCc3ccccc3)[C@@H](O)[C@H]2O)c2ncnc(N)c12 [464 (338)]",
    "measured": "5.00 to 6.00"
  },
  {
    "compound": "Nc1ncnc2c1c(-c1nccs1)cn2[C@@H]1C[C@H](CNCCCNCCc2ccc(F)cc2)[C@@H](O)[C@H]1O [Compound 602]",
    "measured": "6.00 to 7.00"
  },
  {
    "compound": "CNc1ncnc2c1ccn2[C@@H]1C[C@H](CNC(=O)C2CCCNC2)[C@@H](O)[C@H]1O (some centres unmarked) [418 (289)]",
    "measured": "< 5.00"
  },
  {
    "compound": "CNc1ncnc2c1ccn2[C@@H]1C[C@H](CN(CCCNCCc2ccccc2)c2ccccc2)[C@@H](O)[C@H]1O [440 (312)]",
    "measured": "< 5.00"
  }
]
